# TARGET UNDER TEST: T1, hVEGF-C (human, UniProt P49767)
# T1 construct: unlabelled; also called human VEGF-C
# T1 sequence (VEGF-C, looked up): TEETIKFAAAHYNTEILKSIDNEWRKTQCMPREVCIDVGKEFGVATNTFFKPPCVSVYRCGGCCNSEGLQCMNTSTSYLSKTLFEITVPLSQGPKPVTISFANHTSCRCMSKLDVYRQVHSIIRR
# PROCEDURE DETAILS: phage competition ELISA: phage-displayed clone incubated with increasing soluble hVEGF-C, unbound phage captured on hVEGF-C coated plate, anti-M13-HRP, OD450
// IC50 lookup, one value per entry
READOUT LABEL: IC50 (nM)

[[record]]
binder = "VC1.12 (antibody, V domains shown, also called clone VC1.12) VH: EVQLVESGGGLVQPGGSLRLSCAASGFTFSDSDIHWVRQAPGKGLEWVAWISPYVGFTDYADSVKGRFTISADTSKNTAYLQMNSLRAEDTAVYYCARLFDVIFDYWGQGTLVTVSS VL: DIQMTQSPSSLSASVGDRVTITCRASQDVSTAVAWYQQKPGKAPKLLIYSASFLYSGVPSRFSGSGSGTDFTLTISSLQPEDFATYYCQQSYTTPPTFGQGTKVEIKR"
observed_value = 5.1

[[record]]
binder = "anti-VEGF-C IgG VC1 (antibody, V domains shown, Only the six HVRs are tied to this clone; also called clone VC1) VH: EVQLVESGGGLVQPGGSLRLSCAASGFTFSDSDIHWVRQAPGKGLEWVAWISPYSGYTDYADSVKGRFTISADTSKNTAYLQMNSLRAEDTAVYYCARLFEVIFDYWGQGTLVTVSS VL: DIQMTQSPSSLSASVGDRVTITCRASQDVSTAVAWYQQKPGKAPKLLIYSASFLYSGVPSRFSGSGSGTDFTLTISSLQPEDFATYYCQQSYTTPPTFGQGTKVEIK"
observed_value = 21.5

[[record]]
binder = "VC1.10 (antibody, V domains shown, also called clone VC1.10) VH: EVQLVESGGGLVQPGGSLRLSCAASGFTFSDSDIHWVRQAPGKGLEWVAWISPYSGYTDYADSVKGRFTISADTSKNTAYLQMNSLRAEDTAVYYCVRLFGIIFDYWGQGTLVTVSS VL: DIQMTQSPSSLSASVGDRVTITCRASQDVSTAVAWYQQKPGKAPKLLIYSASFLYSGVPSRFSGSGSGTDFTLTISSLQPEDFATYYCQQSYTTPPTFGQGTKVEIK"
observed_value = 17

